Target: sGC α1/β1 heterodimer (Homo sapiens (Human), UniProt Q02108+Q02153)
Test: Cell-based sGC functional assay (CASA assay), cGMP by HTRF
Conditions: inflection point of cGMP production, 4P fit; CHO-K1/sGC cells; read-out: IP
pEC50: −log10 of the molar value.
Endpoint Name: pEC50

CC1(c2ccc(Cl)c(O)c2)C(=O)Nc2nc(-c3cn4ccnc4c(Cc4ccc(F)cc4)n3)nc(NCC(O)C(F)(F)F)c21 (single isomer, unassigned) [Example 132-AB] = 6.13

I. CC1(c2cc(O)c(Cl)cn2)C(=O)Nc2nc(-c3cn4ccnc4c(Cc4cc(F)cc(F)c4F)n3)nc(N)c21 (stereo not drawn) [Example 103-B]
II. CC1(c2cc(O)c(Cl)c(F)c2)C(=O)Nc2nc(-c3cn4ccnc4c(Cc4ccccc4F)n3)nc(N)c21 (stereo not drawn) [Example 2-B]
Problem: Quick one: lower pEC50, I or II ? Please reply using the label of the selected record.
Solution: II

---

Target: sGC α1/β1 heterodimer (Homo sapiens (Human), UniProt Q02108+Q02153)
Assay: Cell-based sGC functional assay (CASA assay), cGMP by HTRF
Conditions: CHO-K1, cGMP production as percentage of maximum of compound A (set to 100%); CHO-K1/sGC cells; read-out: % Activation
Endpoint Name: Emax (%)

# count of solved cases: 5
CCCCc1nc(-c2nc(N)c3c(n2)NC(=O)C3(C)c2ccc(C(F)(F)F)c(O)c2)cn2ccnc12 (stereo not shown) = 110
CC1(c2ccc(Cl)c(O)c2)C(=O)Nc2nc(-c3cn4ncnc4c(CCC(F)(F)C(F)(F)F)n3)nc(NCCC(F)(F)F)c21 (stereo not shown) = 65
CC1CCC(Cc2nc(-c3nc(N)c4c(n3)NC(=O)C4(C)c3ccc(Cl)c(O)c3)cn3ccnc23)CC1 (stereo not shown) = 118
CC1(c2ccc(Cl)c(O)c2)C(=O)Nc2nc(-c3cn4ccnc4c(Cc4ccc(F)cc4F)n3)nc(N)c21 (stereo not shown) = 141
CC1(c2cccc(O)c2)C(=O)Nc2nc(-c3cn4ccnc4c(Cc4ccc(F)cc4F)n3)nc(N)c21 (stereo not shown) = 111

P. CC1(c2cc(O)c(C#N)c(Cl)c2)C(=O)Nc2nc(-c3cn4ccnc4c(CC4CCCCC4)n3)nc(N)c21 (stereo not shown)
Q. CCCCc1nc(-c2nc(N)c3c(n2)NC(=O)C3(C)c2cc(O)c(Cl)c(F)c2)cn2ncnc12 (stereo not shown)
Problem: Quick one: lower Emax, P or Q ? Please reply using the label of the selected record.
Solution: P
(P: 74%, Q: 170%)

---

Target: sGC α1/β1 heterodimer (Homo sapiens (Human), UniProt Q02108+Q02153)
Assay: Cell-based sGC functional assay (CASA assay), cGMP by HTRF
Settings: inflection point of cGMP production, 4P fit; CHO-K1/sGC cells; read-out: IP
pEC50: −log10 of the molar value.
Endpoint Name: pEC50

P. CC1(c2ccc(O)c(Cl)c2)C(=O)Nc2nc(-c3cn4ccnc4c(Cc4cccc(F)c4)n3)nc(N)c21 (stereo not shown) [Example 35-B]
Q. CCCCc1nc(-c2nc(N)c3c(n2)NC(=O)C3(C)c2ccc(F)c(O)c2)cn2ncnc12 (stereo not shown) [Example 62-B]
R. CC1(c2cc(O)c(F)c(F)c2)C(=O)Nc2nc(-c3cn4ccnc4c(Cc4ccccc4F)n3)nc(N)c21 (stereo not shown) [Example 9-B]
S. CC1(c2cc(Cl)c(O)c(Cl)c2)C(=O)Nc2nc(-c3cn4ncnc4c(CC4CCCCC4)n3)nc(N)c21 (stereo not shown) [Example 112-B]
Problem: # rank_down: sort by pEC50, max first Returns: the labels listed in the requested order.
Solution: S, Q, P, R
(S: 7.80, Q: 7.31, P: 6.40, R: 5.98)

---

Biological target: sGC α1/β1 heterodimer (Homo sapiens (Human), UniProt Q02108+Q02153)
Experiment: Cell-based sGC functional assay (CASA assay), cGMP by HTRF
Conditions: cGMP production as percentage of maximum of compound A (set to 100%); CHO-K1/sGC cells
Endpoint Name: % Activation (%)

CC1CCC(Cc2nc(-c3nc(N)c4c(n3)NC(=O)C4(C)c3ccc(O)c(Cl)c3)cn3ccnc23)CC1 (single isomer, unassigned) = 121
CC1(c2ccc(Cl)c(O)c2)C(=O)Nc2nc(-c3cn4ccnc4c(Cc4cccc(F)c4)n3)nc(NCC(O)C(F)(F)F)c21 (stereo not drawn) = 96
CC1CCC(Cc2nc(-c3nc(N)c4c(n3)NC(=O)C4(C)c3ccc(Cl)c(O)c3)cn3ccnc23)CC1 (stereo not drawn) = 127

A. CC1(c2cc(Cl)c(O)cn2)C(=O)Nc2nc(-c3cn4ccnc4c(Cc4ccccc4F)n3)nc(N)c21 (single isomer, unassigned)
B. CC1(c2ccc(Cl)c(O)c2)C(=O)Nc2nc(-c3cn4ccnc4c(Cc4ccc(F)cc4)n3)nc(NCC(O)C(F)(F)F)c21 (single isomer, unassigned)
C. CC1(c2ccc(Cl)c(O)c2)C(=O)Nc2nc(-c3cn4ncnc4c(CCC(F)(F)C(F)(F)F)n3)nc(NCC(O)C(F)(F)F)c21 (single isomer, unassigned)
Problem: Please produce an ascending ranking of these molecules based on % Activation. Returns: the labels listed in the requested order.
Solution: C, B, A
(C: 48%, B: 95%, A: 144%)

---

Target: sGC α1/β1 heterodimer (Homo sapiens (Human), UniProt Q02108+Q02153)
Assay: Cell-based sGC functional assay (CASA assay), cGMP by HTRF
Conditions: inflection point of cGMP production, 4P fit; CHO-K1/sGC cells; read-out: IP
pEC50: −log10 of the molar value.
Endpoint Name: pEC50

# count of solved cases: 6
Cc1ccc(C2(C)C(=O)Nc3nc(-c4cn5ccnc5c(Cc5cccc(F)c5)n4)nc(N)c32)cc1O (centres unmarked) [Example 107-B] = 6.70
Cc1cccc(Cc2nc(-c3nc(N)c4c(n3)NC(=O)C4(C)c3cccc(O)c3)cn3ccnc23)c1 (centres unmarked) [Example 122-B] = 5.74
Cc1cc(C2(C)C(=O)Nc3nc(-c4cn5ccnc5c(Cc5cccc(F)c5)n4)nc(N)c32)ccc1O (centres unmarked) [Example 45-A] = 5.80
CCCCc1nc(-c2nc(N)c3c(n2)NC(=O)C3(C)c2ccc(C(F)(F)F)c(O)c2)cn2ccnc12 (centres unmarked) [Example 76-B] = 6.26
CC1(c2ccc(O)c(F)c2)C(=O)Nc2nc(-c3cn4ccnc4c(Cc4ccccc4F)n3)nc(N)c21 (centres unmarked) [Example 24-B] = 6.12
CC1(c2cc(O)c(Cl)c(F)c2)C(=O)Nc2nc(-c3cn4ccnc4c(Cc4cc(F)cc(F)c4F)n3)nc(N)c21 (centres unmarked) [Example 7-B] = 6.66

I. CC1(c2ccc(Cl)c(O)c2)C(=O)Nc2nc(-c3cn4ncnc4c(CCC(F)(F)C(F)(F)F)n3)nc(N)c21 (centres unmarked) [Example 88-A]
II. CC1(c2ccc(O)c(F)c2)C(=O)Nc2nc(-c3cn4ccnc4c(Cc4cccc(F)c4)n3)nc(N)c21 (centres unmarked) [Example 125-B]
III. CC1(c2cc(O)c(C#N)c(Cl)c2)C(=O)Nc2nc(-c3cn4ccnc4c(Cc4cccc(F)c4)n3)nc(N)c21 (centres unmarked) [Example 144-A]
Problem: Please produce an ascending ranking of these molecules based on pEC50. Returns: the labels listed in the requested order.
Solution: III, II, I

---

Target: human recombinant sGC enzyme (Homo sapiens (Human), UniProt Q02108+Q02153)
Experiment: SEC competition binding assay with [3H] Compound B radioligand
Conditions: displacement of 1.6 nM [3H] Compound B, 24 h at 37° C.
Endpoint Name: Ki (nM)

# count of solved cases: 5
CC1(c2ccc(C(F)(F)F)c(O)c2)C(=O)Nc2nc(-c3cn4ccnc4c(Cc4ccccc4F)n3)nc(N)c21 (centres unmarked) [Example 3-B] = 0.219
CC1(c2ccc(Cl)c(O)c2)C(=O)Nc2nc(-c3cn4ccnc4c(Cc4ccc(F)c(F)c4)n3)nc(N)c21 (centres unmarked) [Example 20-A] = 0.173
CC1(c2cc(O)ccn2)C(=O)Nc2nc(-c3cn4ncnc4c(CC4CCCCC4)n3)nc(N)c21 (centres unmarked) [Example 109-A] = 0.634
CC1(c2cc(O)c(Cl)c(F)c2)C(=O)Nc2nc(-c3cn4ccnc4c(Cc4cc(F)ccc4F)n3)nc(N)c21 (centres unmarked) [Example 6-B] = 0.094
Cc1cn2cc(-c3nc(N)c4c(n3)NC(=O)C4(C)c3ccc(Cl)c(O)c3)nc(Cc3ccccc3F)c2n1 (centres unmarked) [Example 100-A] = 0.544

P. CC1(c2ccc(F)c(O)c2)C(=O)Nc2nc(-c3cn4ccnc4c(CCC4CCCCC4)n3)nc(N)c21 (centres unmarked) [Example 86-B]
Q. CC1(c2ccc(Cl)c(O)c2)C(=O)Nc2nc(-c3cn4ccnc4c(Cc4ccccc4F)n3)nc(N)c21 (centres unmarked) [Example 8-A]
R. CC1(c2ccc(Cl)c(O)c2)C(=O)Nc2nc(-c3cn4ccnc4c(Cc4ccc(F)cc4)n3)nc(N)c21 (centres unmarked) [Example 30-A]
Problem: Please produce an ascending ranking of these molecules based on Ki. Returns: the labels listed in the requested order.
Solution: Q, R, P

A. CC1(c2ccc(Cl)c(O)c2)C(=O)Nc2nc(-c3cn4ncnc4c(CCC(F)(F)C(F)(F)F)n3)nc(N3CCC(C(F)(F)F)CC3)c21 (centres unmarked) [Example 137-A]
B. CC1(c2cc(O)ccn2)C(=O)Nc2nc(-c3cn4ncnc4c(Cc4cccc(F)c4)n3)nc(N)c21 (centres unmarked) [Example 110-B]
Problem: Field: entry with larger Ki (options A / B ). Please reply using the label of the selected record.
Solution: A
(A: 2.63 nM, B: 1.62 nM)

Entry source: patent US10780092B2
